assay: NCI Yeast Anticancer Drug Screen. Data for the mec2-1 strain (AID 157); conditions: S. cerevisiae mec2-1 strain, at 5.0 µM (retest, dose inferred, filed as 0.5), stronger effect = higher value
About 79,000 compounds went through this panel and 15% of them were active in at least one assay; those are over-represented in the sample as a whole.
Known growth inhibition of a selection of compounds
Output spec: scalar in %, unitless text.

Below, 3 compounds whose answers are already recorded.
smiles_notation=O=[N+]([O-])c1ccc(C(Br)(Br)c2ccc([N+](=O)[O-])cc2)cc1 assay_metric="growth inhibition" units_label=% obs_value=97
smiles_notation=O=C(Nc1ccc(O)cc1O)c1ccccc1 assay_metric="growth inhibition" units_label=% obs_value=-15
smiles_notation=CC(C)COC(=O)c1ccc(N=Cc2ccc(C=Nc3ccc(C(=O)OCC(C)C)cc3)cc2)cc1 assay_metric="growth inhibition" units_label=% obs_value=16

Short answer for "CCCCc1c2c(nc3c1CCc1cc4cc5c(nc4nc1-3)-c1nc3c(c(CCCC)c1CC5)CCCC3=O)C(=O)CCC2" : growth inhibition was 86

Short answer for "O=[N+]([O-])/C(Br)=C\c1ccc([N+](=O)[O-])cc1" : growth inhibition was 4

Short answer for "O/N=C1/CCCC/C1=C\c1ccc(Cl)c(Cl)c1" : growth inhibition was 1

Short answer for "CCOC(=O)C(=N\Nc1ccccc1C)/C(C)=N\NC(N)=S" : growth inhibition was 7
